Where a name gives a salt, the structure may show the parent alone.
Measured melting point of individual entries
endpoint: melting point

molecule=COc1ccc(N2CCOCC2)c2sc(-c3ncc(-c4sc5ccccc5c4C)[nH]3)nc12 endpointresult="213 to 215 °C"
molecule=COc1ccc(N2CCOCC2)c2sc(-c3nc(-c4ccc5c(c4)OCCO5)c[nH]3)nc12 endpointresult="235 to 237 °C"
molecule=COc1ccc(N2CCOCC2)c2sc(-c3nc4c([nH]3)CCN(C(=O)c3ccccc3C)CC4)nc12 endpointresult="194 to 196 °C"
molecule=COc1ccc(N2CCOCC2)c2sc(-c3nc4c([nH]3)CCN(C(=O)c3ccc(F)cc3)CC4)nc12 endpointresult="205 to 207 °C"
molecule=COc1ccc(N2CCOCC2)c2sc(-c3nc4c([nH]3)CCN(CC(N)=O)CC4)nc12 endpointresult="299 to 302 °C"
molecule="COc1ccc(N2CCOCC2)c2sc(-c3nc(Cc4cccs4)c[nH]3)nc12 (as salt: ammonium)" endpointresult="165 °C"
molecule=COc1ccc(-c2ccccc2)c2sc(-c3ncc[nH]3)nc12 endpointresult="205 to 206 °C"
molecule=COc1ccc(N2CCOCC2)c2sc(-c3nc4c([nH]3)CCN(C(C)=O)CC4)nc12 endpointresult="195 to 197 °C"

* * *

measuredTarget: human adenosine A1 receptor (Homo sapiens, UniProt P30542)
Construct: expressed in transfected cells; host or cells: CHO cells, semliki forest virus expression system; membrane preparation
Sequence (P30542 1-326): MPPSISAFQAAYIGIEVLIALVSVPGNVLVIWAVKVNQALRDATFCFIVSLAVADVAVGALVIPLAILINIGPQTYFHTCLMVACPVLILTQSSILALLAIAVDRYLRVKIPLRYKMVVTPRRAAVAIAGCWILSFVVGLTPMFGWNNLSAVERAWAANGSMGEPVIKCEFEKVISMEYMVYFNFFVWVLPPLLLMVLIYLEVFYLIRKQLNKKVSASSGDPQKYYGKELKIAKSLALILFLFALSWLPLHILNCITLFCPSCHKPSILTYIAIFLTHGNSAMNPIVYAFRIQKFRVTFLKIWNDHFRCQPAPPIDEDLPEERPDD
testSummary: Human adenosine A1 receptor [3H]-DPCPX binding assay (SPA)
testConditions: recombinant receptor in CHO cell membranes; [3H]-DPCPX 0.6 nM; Ki by Cheng-Prussoff; read-out: hA1 (pKi) (converted)
Ki values by entry
endpoint: Ki (nM)

smilesinput=COc1ccc(-c2ccccc2)c2sc(-c3ncc[nH]3)nc12 measuredtarget="human adenosine A1 receptor (Homo sapiens, UniProt P30542)" endpointresult=200
smilesinput=COc1ccc(N2CCOCC2)c2sc(-c3nc4c([nH]3)CCN(C(=O)C3CC3)CC4)nc12 measuredtarget="human adenosine A1 receptor (Homo sapiens, UniProt P30542)" endpointresult=1260
smilesinput=COc1ccc(N2CCOCC2)c2sc(-c3nc4ccc(N(C)CC5CCOCC5)nc4[nH]3)nc12 measuredtarget="human adenosine A1 receptor (Homo sapiens, UniProt P30542)" endpointresult=2510
smilesinput=COc1ccc(N2CCOCC2)c2sc(-c3nc4c([nH]3)COCC4)nc12 measuredtarget="human adenosine A1 receptor (Homo sapiens, UniProt P30542)" endpointresult=398
smilesinput=COc1ccc(N2CCOCC2)c2sc(-c3nc4c([nH]3)CCCC4)nc12 measuredtarget="human adenosine A1 receptor (Homo sapiens, UniProt P30542)" endpointresult=794
